# test summary: 7-day mouse toxicology study: toxicokinetics (plasma, brain, CSF), 30 mg/kg/day PO
# Type: in vivo, male C57BL/6 mice
# experimental parameters: male, C57BL/6, mouse, plasma, po, 30 mg/kg, Day 1, Plasma, 30 mg/kg PO; read-out: AUClast
assay endpoint: AUC(0-t) (ng·h/mL)

[
  {
    "compound": "Cc1cccnc1[C@@H]1CCC[C@H](c2nc3cccc(N4CCN(C)CC4)c3[nH]2)N1C (racemic) [I-3]",
    "units label": "ng·h/mL",
    "meas value": 2370
  }
]

###

Recorded IC50 values for a group of compounds are listed next.
# target under test: Jurkat cells expressing CXCR4 (Homo sapiens)
# Construct: endogenous in cells
# Sequence (P61073 whole entry): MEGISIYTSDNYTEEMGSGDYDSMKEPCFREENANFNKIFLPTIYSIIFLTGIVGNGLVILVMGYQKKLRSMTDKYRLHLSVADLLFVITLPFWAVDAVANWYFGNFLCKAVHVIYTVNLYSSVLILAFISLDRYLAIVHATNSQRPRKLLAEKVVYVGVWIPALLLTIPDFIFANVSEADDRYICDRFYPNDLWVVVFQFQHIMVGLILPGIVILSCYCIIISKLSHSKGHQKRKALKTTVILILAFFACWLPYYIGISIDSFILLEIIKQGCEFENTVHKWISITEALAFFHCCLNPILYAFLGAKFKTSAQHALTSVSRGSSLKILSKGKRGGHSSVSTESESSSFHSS
# test summary: Chemokine (CXCL12-AF647) binding inhibition assay
# experimental parameters: CXCL12-AF647 25 ng/mL, read-out: IC50 CXCL-12 binding Jurkat
assay endpoint: IC50

[
  {
    "compound": "CCN1[C@@H](c2nc3ccccc3n2CC2CCN(C)CC2)CCC[C@H]1c1ncccc1C",
    "target under test": "Jurkat cells expressing CXCR4 (Homo sapiens)",
    "meas value": "0.01 to 100 nM"
  },
  {
    "compound": "Cc1cccnc1[C@@H]1CCC[C@H](c2nc3cccc(N4C5CCC4CN(C)C5)c3[nH]2)N1",
    "target under test": "Jurkat cells expressing CXCR4 (Homo sapiens)",
    "meas value": "0.01 to 100 nM"
  },
  {
    "compound": "CN1[C@@H](c2nc3cccc(N4CCN5CCCC5C4)c3[nH]2)CCC[C@H]1c1ncccc1Cl (stereo partly drawn) [I-150]",
    "target under test": "Jurkat cells expressing CXCR4 (Homo sapiens)",
    "meas value": "0.01 to 100 nM"
  }
]
